Listing of entries alongside the reported activity of enzyme with Ethacrynic Acid.
# Assay overview: GST conjugation of ethacrynic acid with glutathione (HPLC)
# Assay type: biochemical
# Condition context: purified enzyme, 0.4 mM electrophilic substrate, 4 mM glutathione, 0.1 M MOPS pH 7.0
Readout: activity of enzyme with Ethacrynic Acid (nmol/min/mg)

molecule="ceb5.pk0051.f8: maize class III GST enzyme encoded by cDNA clone, expressed in E. coli (protein) MAGETKKGLVLLDFWVSPFGQRCRIALAEKGIAYEYSEQELLGGAKSDILLRSNPVHKKIPVLLHDGRPVCESLVILEYLEEAFPEASPRLLPDAAYARAQARFWAAYSDKVYKAGTRLWKLRGDARAQARAEIVQVVRNLDGELGDKAFFGGEAFGFVDVALVPFVPWLPSYERYGDFSVAEIAPRLAAWARRCAQRESVARTLHPPEKVDEFINLLKKTYGIE" readout="activity of enzyme with Ethacrynic Acid" experimental_result=117
molecule="cs1.pk0010.c5: maize class I GST enzyme encoded by cDNA clone, expressed in E. coli (protein) MAAGLQVFGQPASTDVARVLTCLFEKKLEFELVRIDTFKTHHRLPEFIRLRDPNGQVTFKHGDKTLVDSRDICRYVCNQFPNYGNKSLYGSGALERASIEQWLQAEAQNFGPPSSALVFQLAFVPHLSHLGVRQDPAVIAENEDKLKQVLDVYDEILSKNEYLAGDEFTLADLSHLPNSHYIVNTERGRKLFTNKKNVAKWYDRLSKRETWVQVVKMQKEHPGAFK" readout="activity of enzyme with Ethacrynic Acid" experimental_result=9
molecule="m.15.5.d06.sk20: maize class II GST enzyme encoded by cDNA clone, expressed in E. coli (protein) MAEVEATVGRLMLYSYWRSSCSHRARIALNLKGVDYEYKAVNLLKGEQSDPEFVKLNPMKFVPALVDGSSVIGDSYAITLYLEDKYPEPPLLPQDLQKKALNHQIASIVASGIQPLHNLTVLRFIDQKVGAGESVLWTQQQIERGFTAIENLIQLKGCAGKYATGDEVQLADVFLAPQIYAAIERTKIDMSNYLTLARLHSEYMSHPAFEAALPGKQPDAPSSS" readout="activity of enzyme with Ethacrynic Acid" experimental_result=17
molecule="ceb5.pk0049.a11: maize class III GST enzyme encoded by cDNA clone, expressed in E. coli (protein) MAEEKKQGLQLLDFWVSPFGQRCRIALDEKGLAYEYLEQDLRNKSELLLRANPVHKKIPVLLHDGRPVCESLVIVQYLDEAFPEAAPALLPADPYARAQARFWADYVDKKLYDCGTRLWKLKGDGQAQARAEMVEILRTLEGALGDGPFFGGDALGFVDVALVPFTSWFLAYDRFGGVSVEKECPRLAAWAKRCAERPSVAKNLYPPEKVYDFVCGMKKRLGIE" readout="activity of enzyme with Ethacrynic Acid" experimental_result=102
molecule="bms1.pk0023.g8: maize class I GST enzyme encoded by cDNA clone, expressed in E. coli (protein) MAPPMKVYGWAVSPWMARALVCLEEAGADYEIVPMSRCGGDHRRPEHLAKNPFGEIPVLEDGDLTLYQSRAIARYVLRKLKPELLREGDLEGSAMVDAWMEVEAHHMEPALWPIIRHSIIGQYVGRERDHQAVIDENLDRLRKVLPAYEARLSVCKYLVGDDISAADLCHFGFMRYFMATEYAGLVDAYPHVKAWWDALLARPSVQKVMAGMPPDFGYASGNIP" readout="activity of enzyme with Ethacrynic Acid" experimental_result=13
